System: T1, human IL-17A (human, UniProt Q16552 20-155, limits assumed)
T1 construct: Bought from R&D Systems; also called IL-17 antigen (human IL17A)
T1 sequence (looked up): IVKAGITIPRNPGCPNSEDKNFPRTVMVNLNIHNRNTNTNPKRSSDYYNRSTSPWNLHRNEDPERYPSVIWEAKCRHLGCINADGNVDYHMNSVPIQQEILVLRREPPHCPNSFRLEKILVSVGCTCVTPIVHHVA
Experiment notes: blocking ELISA, IL-17RA coated; antibody 1 ug/ml pre-mixed with human IL-17A 0.1 ug/ml; bound IL-17A detected
Measurement type: OD450 (OD450)
The response must be a number in OD450 with no trailing unit.

Prompt: What does the data say about its OD450? Entry: PP10766 (antibody, human IgG4 S228P, kappa, V domains shown, Humanized, human IgG4/kappa; also called VH6667/VL6665) VH: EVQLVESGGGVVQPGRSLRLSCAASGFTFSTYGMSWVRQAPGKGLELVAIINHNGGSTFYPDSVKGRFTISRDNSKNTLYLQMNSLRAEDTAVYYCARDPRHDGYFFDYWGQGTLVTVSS VL: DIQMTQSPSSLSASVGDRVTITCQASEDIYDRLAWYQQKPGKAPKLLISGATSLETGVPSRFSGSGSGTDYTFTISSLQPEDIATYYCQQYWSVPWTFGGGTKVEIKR
Response: 0.147

Prompt: Next up: PP10760 (antibody, human IgG4 S228P, kappa, V domains shown, Humanized, human IgG4/kappa; also called VH6665/VL6665) VH: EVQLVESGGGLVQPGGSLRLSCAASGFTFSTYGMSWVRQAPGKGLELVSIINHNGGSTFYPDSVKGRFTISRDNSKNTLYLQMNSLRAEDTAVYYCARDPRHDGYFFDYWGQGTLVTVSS VL: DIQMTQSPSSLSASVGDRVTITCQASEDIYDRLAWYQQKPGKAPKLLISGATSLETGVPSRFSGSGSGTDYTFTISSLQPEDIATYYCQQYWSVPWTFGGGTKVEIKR
Response: 0.109

Prompt: Another binder to look at: PP10763 (antibody, human IgG4 S228P, kappa, V domains shown, Humanized, human IgG4/kappa; also called VH6666/VL6665) VH: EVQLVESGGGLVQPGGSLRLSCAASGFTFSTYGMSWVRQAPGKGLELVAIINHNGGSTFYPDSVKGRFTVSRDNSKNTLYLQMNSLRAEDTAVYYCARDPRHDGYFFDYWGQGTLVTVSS VL: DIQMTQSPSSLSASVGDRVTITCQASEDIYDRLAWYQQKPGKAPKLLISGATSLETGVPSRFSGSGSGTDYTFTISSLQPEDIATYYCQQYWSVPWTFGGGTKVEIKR
Response: 0.104
